Each recorded value in this set is attributed to ChEMBL document CHEMBL5154918.

assay: Ratio of drug concentration in brain to plasma in mouse at 2 mg/kg, ip administered as discrete dose; type: ADME, organism-based; settings: brain and plasma, read-out: BPR
Readout Kind: Kp

P: CCOc1ccc(F)cc1NC(=O)c1ccccc1NS(=O)(=O)C1CC1
Q: CCOc1ccc(F)cc1NC(=O)c1cc(F)ccc1NS(=O)(=O)C1CC1
// query Please compare: P and Q . Report which one has the smaller Kp value. Give the label under which the chosen entry appears.
// result Q
(Q: 0.2, P: 0.32)

###

experiment: Drug concentration in Sprague-Dawley rat plasma at 0.25 mg/kg measured up to 48.25 hrs; type: ADME, organism-based
Readout Kind: concentration at 48.25 h (ng/mL)

| Structure | concentration at 48.25 h (ng/mL) |
| --- | --- |
| CCOc1ccc(F)cc1NC(=O)c1ccccc1NS(=O)(=O)C1CC1 | 79.6 |

I: CCOc1ccc(F)cc1NC(=O)c1cc(F)ccc1NS(=O)(=O)C1CC1
II: CCOc1ccc(F)cc1NC(=O)c1cc(C)ccc1NS(=O)(=O)C1CC1
// query Please compare: I and II . Report which one has the smaller concentration at 48.25 h value. Give the label under which the chosen entry appears.
// result II
